system: Plasmodium yoelii; assay: Antimalarial activity against Plasmodium yoelii infected in sc dosed mouse; format: functional
recordedMetric: ED90 (mg/kg)
Report as a plain number; the unit mg/kg is understood.

The following molecules have reported results that may help.
cpdSmiles: C[C@H]1[C@H](NC2CCN(Cc3ccccc3)CC2)O[C@@H]2O[C@]3(C)CC[C@H]4[C@H](C)CC[C@@H]1[C@@]24OO3
measuredNumber: 0.85
//
cpdSmiles: C[C@H]1[C@H](NC2CCN(c3ncccn3)CC2)O[C@@H]2O[C@]3(C)CC[C@H]4[C@H](C)CC[C@@H]1[C@@]24OO3
measuredNumber: 0.52
//
cpdSmiles: C[C@H]1[C@H](Nc2ccc(F)cc2)O[C@@H]2O[C@]3(C)CC[C@H]4[C@H](C)CC[C@@H]1[C@@]24OO3
measuredNumber: 0.6

Next molecule, ED90 to be filled in.
stdin: Given C[C@H]1[C@H](NC2CCOCC2)O[C@@H]2O[C@]3(C)CC[C@H]4[C@H](C)CC[C@@H]1[C@@]24OO3 , state its recorded ED90.
stdout: 1.25

The values you see were collected from ChEMBL document CHEMBL5244272.
